This section presents compounds with their documented IC50 values.
# SYSTEM TESTED: oestrogen receptor (ER) (Homo sapiens)
# Construct: These MVLN cells express, along with the functional oestrogen receptor (ER), a reporter construct; endogenous in cells
# EXPERIMENTAL PROTOCOL: Anti-oestrogenic action in MVLN cells (inhibition of estradiol-induced luciferase)
# MEASUREMENT CONDITIONS: inhibition of estradiol-induced luciferase signal, value of Ex. 44 is a mean value, read-out: Antioestrogenic action in vitro: MVLN transactivation antagonism IC50
# Text: The anti-oestrogenic action of the claimed pharmacological compounds was investigated in so-called MVLN cells in vitro. MVLN cells are derivatives of the hormone-responsive MCF7 breast cancer cells known by a person skilled in the art. These MVLN cells express, along with the functional oestrogen receptor (ER), a reporter construct, which under ER-activation expresses luciferase. […]
// note: answer is a bare numeric in nM

- O=S(=O)(CCCCN(CCO)CCCCCCC1=C(c2ccc(F)cc2)CCCc2cc(O)c(F)cc21)CCCC(F)(F)F: 7
- CN(CCCCCCC1=C(c2ccc(F)cc2)CCCc2cc(O)c(F)cc21)CCCS(=O)(=O)CCCC(F)(F)C(F)(F)F: 15
- O=S(=O)(CCCNCCCCCCC1=C(c2ccc(F)cc2)CCCc2cc(O)ccc21)CCCC(F)(F)C(F)(F)F: 18
- CN(CCCCCCC1=C(c2ccc(F)c(F)c2)CCCc2cc(O)ccc21)CCCS(=O)(=O)CCC(F)(F)C(F)(F)F: 62
- O=S(=O)(CCCCNCCCCCCC1=C(c2ccc(F)cc2)CCCc2cc(O)ccc21)CCCC(F)(F)F: 10
- CN(CCCCCCC1=C(c2cc(F)cc(F)c2)CCCc2cc(O)ccc21)CCCCS(=O)(=O)CCCC(F)(F)C(F)(F)F: 17

QUERY: If you can, please state the reported IC50 value of CN(CCCCCCC1=C(c2ccc(F)cc2)CCCc2cc(O)ccc21)CCC[S+]([O-])CCCC(F)(F)C(F)(F)F (stereo not drawn) .
RESULT: 9

QUERY: If you can, please state the reported IC50 value of CC(C)(O)CN(CCCCCCC1=C(c2ccc(F)c(F)c2)CCCc2cc(O)ccc21)CCC[S+]([O-])CCCC(F)(F)C(F)(F)F (stereo not drawn) .
RESULT: 9

QUERY: If you can, please state the reported IC50 value of CN(CCCCCCC1=C(c2ccc(F)c(F)c2)CCCc2cc(O)ccc21)CCCS(=O)(=O)CCCC(F)(F)F .
RESULT: 22

----------
# System: ovarian estradiol synthesis
# EXPERIMENTAL PROTOCOL: Stimulation of ovarian oestrogen synthesis (HPG axis) in intact adult rats
# Assay type: in vivo, rat
# MEASUREMENT CONDITIONS: hormonally intact adult rats, daily for 10 days; quotient of peripheral estradiol values after and before treatment
ASSAY READOUT: Stimulation of ovarian oestrogen synthesis: factor at a dose of 3 mg/kg rat
The reply should be a number, written without any unit.

As a guide, the following entries are already answered.
• CN(CCCCCCC1=C(c2ccc(F)cc2)CCCc2cc(O)ccc21)CCCCS(=O)(=O)C1CCC(F)(F)CC1 [Example 122] = 2.4
• CN(CCCCCCC1=C(c2ccc(F)cc2)CCCc2cc(O)ccc21)CCCS(=O)(=O)CC1CCC(F)(F)CC1 [Example 123] = 2.5
• CN(CCCCCCC1=C(c2cc(F)cc(F)c2)CCCc2cc(O)ccc21)CCCCS(=O)(=O)CCCC(F)(F)F [Example 44] = 1.2
• CN(CCCCCCC1=C(c2ccc(F)cc2)CCCc2cc(O)ccc21)CCCS(=O)(=O)CCCC(F)(F)F [Example 117] = 2.1
• CN(CCCCCCC1=C(c2cccc(F)c2)CCCc2cc(O)ccc21)CCCCS(=O)(=O)CCCC(F)(F)C(F)(F)F [Example 124] = 2.0

QUERY: If you can, please state the reported Stimulation of ovarian oestrogen synthesis: factor at a dose of 3 mg/kg rat value of CN(CCCCCCC1=C(c2ccc(F)cc2)CCCc2cc(O)ccc21)CCC[S+]([O-])CCCC(F)(F)C(F)(F)F (stereo not shown) [Example 118] .
RESULT: 2.3

QUERY: If you can, please state the reported Stimulation of ovarian oestrogen synthesis: factor at a dose of 3 mg/kg rat value of CN(CCCCCCC1=C(c2ccc(F)cc2)CCCc2cc(O)ccc21)CCCS(=O)(=O)CCCCC(F)(F)F [Example 80] .
RESULT: 2.3

----------
This section presents compounds with their documented IC50 values.
# SYSTEM TESTED: oestrogen receptor (ER) (Homo sapiens)
# Construct: These MVLN cells express, along with the functional oestrogen receptor (ER), a reporter construct; endogenous in cells
# EXPERIMENTAL PROTOCOL: Anti-oestrogenic action in MVLN cells (inhibition of estradiol-induced luciferase)
# MEASUREMENT CONDITIONS: inhibition of estradiol-induced luciferase signal, value of Ex. 44 is a mean value, read-out: Antioestrogenic action in vitro: MVLN transactivation antagonism IC50

As a guide, the following entries are already answered.
* CN(CCCCCCC1=C(c2ccc(F)cc2)CCCc2cc(O)ccc21)CCCS(=O)(=O)CCCCC(F)(F)C(F)(F)F | 0.017 µM
* CN(CCCCCCC1=C(c2ccc(F)cc2)CCCc2c1ccc(O)c2F)CCCSCCCC(F)(F)C(F)(F)F | 0.025 µM
* CC(C)(O)CN(CCCCCCC1=C(c2ccc(F)cc2)CCCc2cc(O)ccc21)CCCS(=O)(=O)CCC(F)(F)F | 0.08 µM
* CC(C)(O)CN(CCCCCCC1=C(c2cc(F)cc(F)c2)CCCc2cc(O)ccc21)CCC[S+]([O-])CCC(F)(F)F (centres unmarked) | 0.038 µM
* CN(CCCCCCC1=C(c2ccc(F)cc2)CCCc2cc(O)ccc21)CCCS(=O)(=O)CCCCCC(F)(F)F | 0.017 µM
* CN(CCCCCCC1=C(c2ccc(F)c(F)c2)CCCc2cc(O)ccc21)CCCC[S+]([O-])CCCC(F)(F)C(F)(F)F (centres unmarked) | 0.009 µM

QUERY: If you can, please state the reported IC50 value of CN(CCCCCCC1=C(c2ccc(F)cc2)CCCc2c1ccc(O)c2F)CCC[S+]([O-])CCCC(F)(F)C(F)(F)F (centres unmarked) .
RESULT: 0.013 µM

QUERY: If you can, please state the reported IC50 value of CN(CCCCCCC1=C(c2ccc(F)cc2)CCCc2c1ccc(O)c2F)CCCS(=O)(=O)CCCC(F)(F)F [Example 38] .
RESULT: 0.027 µM

QUERY: If you can, please state the reported IC50 value of CN(CCCCCCC1=C(c2ccc(F)cc2F)CCCc2cc(O)ccc21)CCCCS(=O)(=O)CCCC(F)(F)C(F)(F)F .
RESULT: 0.032 µM

QUERY: If you can, please state the reported IC50 value of CCN(CCCCCCC1=C(c2ccc(F)c(F)c2)CCCc2cc(O)ccc21)CCCS(=O)(=O)CCC(F)(F)F .
RESULT: 0.088 µM

QUERY: If you can, please state the reported IC50 value of [2H]C([2H])([2H])N(CCCCCCC1=C(c2ccc(F)cc2F)CCCc2cc(O)ccc21)CCCS(=O)(=O)CCCCC(F)(F)F .
RESULT: 0.009 µM

QUERY: If you can, please state the reported IC50 value of O=S(=O)(CCCN(CCCO)CCCCCCC1=C(c2ccc(F)cc2)CCCc2c1ccc(O)c2F)CCCC(F)(F)C(F)(F)F .
RESULT: 0.015 µM

QUERY: If you can, please state the reported IC50 value of CN(CCCCCCC1=C(c2ccc(F)cc2)CCCc2cc(O)ccc21)CCCSCCCC(F)(F)C(F)(F)F .
RESULT: 0.031 µM

QUERY: If you can, please state the reported IC50 value of O=S(=O)(CCCCN(CCO)CCCCCCC1=C(c2ccc(F)cc2)CCCc2cc(O)c(F)cc21)CCC(F)(C(F)(F)F)C(F)(F)F .
RESULT: 0.021 µM

----------
# SYSTEM TESTED: oestrogen receptor (ER) (Homo sapiens, UniProt P03372)
# Construct: These MVLN cells express, along with the functional oestrogen receptor (ER), a reporter construct; endogenous in cells; host or cells: MVLN cells (MCF7 derivative carrying a luciferase reporter construct)
# Sequence (P03372 1-595): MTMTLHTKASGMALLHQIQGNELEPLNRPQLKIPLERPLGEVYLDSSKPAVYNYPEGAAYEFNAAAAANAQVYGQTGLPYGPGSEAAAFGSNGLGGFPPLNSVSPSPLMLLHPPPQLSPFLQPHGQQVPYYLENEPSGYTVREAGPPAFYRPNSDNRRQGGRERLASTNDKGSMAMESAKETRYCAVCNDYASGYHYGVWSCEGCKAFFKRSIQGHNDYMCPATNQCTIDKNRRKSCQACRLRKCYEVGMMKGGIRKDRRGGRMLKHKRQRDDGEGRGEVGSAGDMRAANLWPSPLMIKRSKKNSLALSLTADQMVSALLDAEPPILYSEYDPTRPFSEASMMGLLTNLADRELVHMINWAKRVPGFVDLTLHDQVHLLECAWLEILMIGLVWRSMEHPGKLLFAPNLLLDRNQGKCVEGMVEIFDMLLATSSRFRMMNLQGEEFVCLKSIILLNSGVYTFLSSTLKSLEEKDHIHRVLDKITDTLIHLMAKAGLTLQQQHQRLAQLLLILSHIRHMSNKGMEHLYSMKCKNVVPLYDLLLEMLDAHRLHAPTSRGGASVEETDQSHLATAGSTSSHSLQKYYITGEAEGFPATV
# EXPERIMENTAL PROTOCOL: Anti-oestrogenic action in MVLN cells (inhibition of estradiol-induced luciferase)
# Format: cell-based
# MEASUREMENT CONDITIONS: inhibition of estradiol-induced luciferase signal, value of Ex. 44 is a mean value, read-out: Antioestrogenic action in vitro: MVLN transactivation antagonism IC50
# Source text: The anti-oestrogenic action of the claimed pharmacological compounds was investigated in so-called MVLN cells in vitro. MVLN cells are derivatives of the hormone-responsive MCF7 breast cancer cells known by a person skilled in the art. These MVLN cells express, along with the functional oestrogen receptor (ER), a reporter construct, which under ER-activation expresses luciferase. […]
ASSAY READOUT: IC50 (nM)
// note: answer is a bare numeric in nM

As a guide, the following entries are already answered.
• CN(CCCCCCC1=C(c2cc(F)cc(F)c2)CCCc2cc(O)ccc21)CCCCS(=O)(=O)CCC(F)(F)F = 36
• CN(CCCCCCC1=C(c2ccc(F)cc2F)CCCc2cc(O)ccc21)CCCCS(=O)(=O)CCCC(F)(F)F = 4
• O=S(=O)(CCCN(CCCCCCC1=C(c2ccc(F)cc2)CCCc2c1ccc(O)c2F)CC(F)(F)F)CCCC(F)(F)C(F)(F)F = 252

QUERY: If you can, please state the reported IC50 value of O=S(=O)(CCCCN(CCO)CCCCCCC1=C(c2ccc(F)cc2)CCCc2cc(O)ccc21)CCCC(F)(F)F .
RESULT: 5
